- Target: Voltage-dependent N-type calcium channel subunit alpha-1B (Homo sapiens, UniProt Q00975)
- Sequence (Q00975 whole entry): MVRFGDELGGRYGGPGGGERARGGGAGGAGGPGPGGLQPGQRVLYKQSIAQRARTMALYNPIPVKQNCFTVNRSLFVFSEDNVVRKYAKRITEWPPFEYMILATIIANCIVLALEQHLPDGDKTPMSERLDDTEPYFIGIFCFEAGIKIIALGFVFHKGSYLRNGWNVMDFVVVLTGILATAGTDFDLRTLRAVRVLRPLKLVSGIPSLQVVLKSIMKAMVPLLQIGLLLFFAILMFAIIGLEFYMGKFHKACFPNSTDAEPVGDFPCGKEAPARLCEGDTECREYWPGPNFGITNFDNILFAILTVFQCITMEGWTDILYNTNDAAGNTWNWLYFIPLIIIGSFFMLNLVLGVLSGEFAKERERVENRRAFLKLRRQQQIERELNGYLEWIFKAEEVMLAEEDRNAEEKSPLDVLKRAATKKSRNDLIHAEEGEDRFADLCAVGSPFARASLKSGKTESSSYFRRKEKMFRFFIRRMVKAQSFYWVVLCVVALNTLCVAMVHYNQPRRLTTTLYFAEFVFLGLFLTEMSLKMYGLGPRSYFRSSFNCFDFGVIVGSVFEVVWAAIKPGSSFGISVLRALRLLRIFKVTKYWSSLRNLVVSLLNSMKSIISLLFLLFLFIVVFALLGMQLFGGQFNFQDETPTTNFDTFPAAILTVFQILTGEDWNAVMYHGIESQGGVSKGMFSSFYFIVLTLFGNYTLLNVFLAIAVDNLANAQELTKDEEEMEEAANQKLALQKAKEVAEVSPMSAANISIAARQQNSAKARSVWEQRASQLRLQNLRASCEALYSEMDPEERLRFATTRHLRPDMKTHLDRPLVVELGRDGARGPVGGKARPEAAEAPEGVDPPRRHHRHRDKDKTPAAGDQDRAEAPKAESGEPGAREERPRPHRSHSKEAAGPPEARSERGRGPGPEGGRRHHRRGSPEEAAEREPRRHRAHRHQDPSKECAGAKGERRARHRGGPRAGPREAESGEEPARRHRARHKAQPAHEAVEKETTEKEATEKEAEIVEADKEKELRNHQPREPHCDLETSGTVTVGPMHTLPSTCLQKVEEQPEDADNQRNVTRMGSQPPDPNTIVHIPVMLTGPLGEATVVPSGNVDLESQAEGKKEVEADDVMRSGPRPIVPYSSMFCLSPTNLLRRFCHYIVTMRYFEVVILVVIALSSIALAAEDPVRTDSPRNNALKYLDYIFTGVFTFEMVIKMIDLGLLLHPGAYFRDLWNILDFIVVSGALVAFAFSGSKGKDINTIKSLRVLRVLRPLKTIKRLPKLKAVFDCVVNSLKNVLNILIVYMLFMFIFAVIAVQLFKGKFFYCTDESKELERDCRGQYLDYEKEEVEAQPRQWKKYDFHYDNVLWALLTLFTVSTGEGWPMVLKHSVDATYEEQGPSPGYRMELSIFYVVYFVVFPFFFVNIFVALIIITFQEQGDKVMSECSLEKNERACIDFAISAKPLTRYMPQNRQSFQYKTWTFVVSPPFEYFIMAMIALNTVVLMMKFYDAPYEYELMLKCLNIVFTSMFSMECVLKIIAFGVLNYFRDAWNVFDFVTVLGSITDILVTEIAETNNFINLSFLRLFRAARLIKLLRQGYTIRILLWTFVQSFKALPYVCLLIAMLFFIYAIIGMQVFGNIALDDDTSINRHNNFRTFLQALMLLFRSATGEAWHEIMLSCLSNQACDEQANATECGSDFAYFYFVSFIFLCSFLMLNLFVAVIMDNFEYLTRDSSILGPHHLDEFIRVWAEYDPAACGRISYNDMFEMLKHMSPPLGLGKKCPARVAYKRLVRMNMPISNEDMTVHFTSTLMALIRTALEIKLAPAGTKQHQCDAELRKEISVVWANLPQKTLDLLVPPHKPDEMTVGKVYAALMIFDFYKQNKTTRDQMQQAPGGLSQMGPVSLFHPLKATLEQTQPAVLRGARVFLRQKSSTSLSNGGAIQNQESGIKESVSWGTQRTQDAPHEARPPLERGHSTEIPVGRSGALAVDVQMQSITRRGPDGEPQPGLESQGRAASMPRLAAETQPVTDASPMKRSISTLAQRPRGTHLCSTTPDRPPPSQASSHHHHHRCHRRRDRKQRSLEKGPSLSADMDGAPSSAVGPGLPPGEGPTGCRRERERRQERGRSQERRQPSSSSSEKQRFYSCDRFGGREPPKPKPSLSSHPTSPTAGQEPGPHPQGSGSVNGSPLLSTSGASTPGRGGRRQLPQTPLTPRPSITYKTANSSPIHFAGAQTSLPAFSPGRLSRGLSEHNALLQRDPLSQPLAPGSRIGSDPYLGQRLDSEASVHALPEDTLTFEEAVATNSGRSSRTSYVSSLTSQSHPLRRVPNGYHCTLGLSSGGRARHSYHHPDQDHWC
- Method Summary: Inhibition of N-type Cav2.2 channel (unknown origin) by FLIPR assay
- Condition: read-out: IC50
Reported pIC50 is given for each of the following molecules.
In simple prose, pIC50 is minus the logarithm base ten of a concentration in moles per litre.

Some molecules with known pIC50 results, for comparison:
| Substance Smiles | pIC50 |
| --- | --- |
| O=C(N[C@@H]1CC[C@H]2CN(Cc3cccc(C(F)(F)F)c3)C[C@H]21)C(C1CCCCC1)C1CCCCC1 | 5.73 |
| CC(C)C[C@@H](C(=O)N[C@@H]1CC[C@H]2CN(S(=O)(=O)c3cccc(C(F)(F)F)c3)C[C@H]21)N(C)C | 6.35 |
| CN[C@@H](CC(C)C)C(=O)N[C@H]1CC[C@@H]2CN(c3ccc(C(F)(F)F)cc3)C[C@@H]21 | 5.91 |

Incoming: What does the data say about its pIC50? Entry: "CN[C@@H](CC(C)C)C(=O)N[C@H]1CC[C@@H]2CN(S(=O)(=O)c3ccc(C(F)(F)F)cc3)C[C@@H]21"
Outgoing: 6.12

---

- Method Summary: Solubility of the compound by chemiluminescent nitrogen detection method
Measure: solubility (µM)
Write down the numeric answer in µM and omit the unit.

Examples from the recorded data:
| Substance Smiles | solubility, µM |
| --- | --- |
| CCN[C@@H](CC(C)(C)C)C(=O)N[C@H]1CC[C@@H]2CN(S(=O)(=O)c3ccc(C(F)(F)F)cc3)C[C@@H]21 | 20 |
| CCC[C@H](NC)C(=O)N[C@H]1CC[C@@H]2CN(S(=O)(=O)c3ccc(C(F)(F)F)cc3)C[C@@H]21 | 97 |
| CC(C)C[C@H](NS(C)(=O)=O)C(=O)N[C@@H]1CC[C@H]2CN(Cc3cccc(C(F)(F)F)c3)C[C@H]21 | 80 |

Okay, next one:
Incoming: GET /values?readout=solubility&item= "CC(C)(C)C[C@H](N)C(=O)N[C@H]1CC[C@@H]2CN(S(=O)(=O)c3ccc(C(F)(F)F)cc3)C[C@@H]21"
Outgoing: 68

---

half-life values for the compounds below.
- Method Summary: Half life in rat at 5 umol/kg, iv and 30 umol/kg, po
- Type: ADME, organism-based
- Condition: in vivo
The reply should be a number in h, with the unit left off.

Incoming: Give its half-life value. Item: "CC(C)C[C@H](N)C(=O)N[C@@H]1CC[C@H]2CN(S(=O)(=O)c3cccc(C(F)(F)F)c3)C[C@H]21"
Outgoing: 0.5

Incoming: What does the data say about its half-life? Entry: "CN[C@@H](CC(C)C)C(=O)N[C@@H]1CC[C@H]2CN(S(=O)(=O)c3cccc(C(F)(F)F)c3)C[C@H]21"
Outgoing: 2

Incoming: # get_value(readout='half-life', item= "CC(C)C[C@@H](C(=O)N[C@@H]1CC[C@H]2CN(S(=O)(=O)c3cccc(C(F)(F)F)c3)C[C@H]21)N(C)C" )
Outgoing: 1.4

Incoming: Which measured half-life value corresponds to "CC(C)N[C@@H](CC(C)(C)C)C(=O)N[C@H]1CC[C@@H]2CN(S(=O)(=O)c3ccc(C(F)(F)F)cc3)C[C@@H]21" ?
Outgoing: 2.7

---

- Method Summary: Metabolic stability in human liver microsomes assessed as compound remaining after 30 mins
- Format: ADME, Microsome
- Condition: read-out: Stability
Response field label: string, one of yes (remaining at 0.5 h strictly below 50%) or no.

Solved cases below.
| Substance Smiles | Group Label |
| --- | --- |
| O=C(N[C@@H]1CC[C@H]2CN(Cc3cccc(C(F)(F)F)c3)C[C@H]21)C(C1CCCCC1)C1CCCCC1 | yes |
| CC(C)(C)[C@H](N)C(=O)N[C@H]1CC[C@@H]2CN(S(=O)(=O)c3ccc(C(F)(F)F)cc3)C[C@@H]21 | no |
| CN[C@@H](CC(C)C)C(=O)N[C@@H]1CC[C@H]2CN(S(=O)(=O)c3cccc(C(F)(F)F)c3)C[C@H]21 | yes |

Below: the item to evaluate.
Incoming: Is 50% strictly greater than the compound's reported remaining at 0.5 h? compound: "CCN[C@@H](CC(C)(C)C)C(=O)N[C@H]1CC[C@@H]2CN(S(=O)(=O)c3ccc(C(F)(F)F)cc3)C[C@@H]21"
Outgoing: yes
